B1: tRNA (parent)
chain: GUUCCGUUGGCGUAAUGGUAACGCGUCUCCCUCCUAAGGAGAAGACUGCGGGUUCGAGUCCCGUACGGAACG

# Variants of: B1
# Procedure summary: yeast fitness relative to wild type (ratio to wild type); higher = fitter; tRNA-Arg(CCU), competitive growth, 37 C, YPD
Fewer inactive variants are shown than the library holds.
Readout: yeast fitness

INSERT INTO assay_data (item_sequence, readout, value_observed) VALUES
  ('GUACCGUUGGCGUAAUGAUAAUGCGUCUCCCUCCUAAGGAGAAGACUGCGGGUUCGAGUCCCGUACGGAACG [U3A G18A C22U]', 'yeast fitness', '≤ 0.5'),
  ('GUUCCGUUGGCGUAAUGGUAACGGGUCUCCAUCCUAAGGAGGUGACUGCGGGUUCGAGUCCCGUACGGAACG [C24G C31A A42G A43U]', 'yeast fitness', '≤ 0.5'),
  ('GUUCCGUUGGCGCAAUGGUAACGCGUUUCCCUCCUAAGGAGAAGACUGCGGGUUCGAGUCCCGUACGGUCCG [U13C C27U A69U A70C]', 'yeast fitness', '≤ 0.5'),
  ('GUUCCGUUGGCGUAGUGGUAACGCGUCUCCCUCCUAAGGAGAAGACUGGGGGUUCGAGUCCGGUACGGAACG [A15G C49G C62G]', 'yeast fitness', '≤ 0.5'),
  ('GUUCCGUUGGCGUAAUGGUAACGCGUCUCCCUCCUAAGGAGUCGACUGGGGGUUCGAGUCCCGUCCGGAACG [A42U A43C C49G A65C]', 'yeast fitness', '≤ 0.5'),
  ('GUUCCGUUGGCAUAAUGGUAGCGCGUCUCCCUCCUAAGAAGAAGGCUGCAGGUUCGAGUCCCGUACGGUACG [G12A A21G G39A A45G G50A A69U]', 'yeast fitness', '≤ 0.5'),
  ('GUUCCGUUGGCGUAAUGGUAACGCGUCUCCCUCCUAAGGACAAGACUGCGGGUUUGAGUCCCGUACGGAACG [G41C C55U]', 'yeast fitness', 0.787),
  ('GUUCCGUUGGCGUAAUGGUUACGCGUCUCCCUCCUAAGGAGAAGACUGCGGGUUUGCGUCCCGUACGGAACG [A20U C55U A57C]', 'yeast fitness', '≤ 0.5'),
  ('GUUCCGUUGGCGUAAUGGUAACGCGUCUCCCUCCUAAGGAGAAGACUGCGGGUUUGAGUCCCAUGCGGAACG [C55U G63A A65G]', 'yeast fitness', '≤ 0.5'),
  ('GUUCCGUUGGCGUAAUGCUAACGCGUCUUCCUCCUAAGGAGAAGACUGCGGGUUCGAGUCCCGUACGGAACG [G18C C29U]', 'yeast fitness', 0.546);
